- measurement.target: EGFR (Homo sapiens)
- Sequence (P00533 669-1210): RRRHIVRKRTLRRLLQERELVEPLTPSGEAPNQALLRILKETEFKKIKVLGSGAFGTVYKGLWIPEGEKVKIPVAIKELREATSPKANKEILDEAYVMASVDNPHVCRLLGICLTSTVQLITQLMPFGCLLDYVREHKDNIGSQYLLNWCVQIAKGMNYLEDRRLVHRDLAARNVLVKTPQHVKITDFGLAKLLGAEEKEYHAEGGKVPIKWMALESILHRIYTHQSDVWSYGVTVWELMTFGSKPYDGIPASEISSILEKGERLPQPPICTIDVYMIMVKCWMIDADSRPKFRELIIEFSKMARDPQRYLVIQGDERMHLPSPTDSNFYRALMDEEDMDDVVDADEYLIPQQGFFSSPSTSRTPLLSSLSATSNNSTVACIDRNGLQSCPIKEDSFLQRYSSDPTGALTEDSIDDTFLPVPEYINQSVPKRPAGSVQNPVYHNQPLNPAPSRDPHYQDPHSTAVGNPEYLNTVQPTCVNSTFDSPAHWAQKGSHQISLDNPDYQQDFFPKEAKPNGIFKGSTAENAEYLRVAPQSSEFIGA
- experiment.notes: EGFR-TK inhibitory assay
endpoint.name: IC50 (µM)

INSERT INTO assay_data (molecule, endpoint_name, recorded_measurement) VALUES
  ('Cc1nc(SCC(=O)c2cc3cc(Br)ccc3oc2=O)sc1C(=O)/C=C/c1ccc(Cl)cc1 [Compound 11e]', 'IC50', 0.089),
  ('Cc1nc(SCC(=O)c2cc3ccccc3oc2=O)sc1C(=O)/C=C/c1ccccc1 [Compound 11a]', 'IC50', 0.093),
  ('Cc1nc(SCC(=O)c2cc3cc(Br)ccc3oc2=O)sc1C(=O)/C=C/c1ccccc1 [Compound 11d]', 'IC50', 0.076),
  ('COc1ccc(/C=C/C(=O)c2sc(SCC(=O)c3cc4ccccc4o3)nc2C)cc1 [Compound 12c]', 'IC50', 0.083),
  ('COc1ccc(/C=C/C(=O)c2sc(SCC(=O)c3cc4cc(Br)ccc4oc3=O)nc2C)cc1 [Compound 11f]', 'IC50', 0.071);

###

Measured pIC50, listed per entry for reference.
- measurement.target: E. coli DNA gyrase (Escherichia coli)
- experiment.notes: DNA gyrase supercoiling assay
- Format: biochemical
pIC50: −log10 of the molar value.
endpoint.name: pIC50

INSERT INTO results (compound, recorded_measurement) VALUES
  ('COc1ccc(/C=C/C(=O)c2sc(SCC(=O)c3cc4cc(Br)ccc4o3)nc2C)cc1 [Compound 12f]', 6.68),
  ('Cc1nc(SCC(=O)c2cc3cc(Br)ccc3o2)sc1C(=O)/C=C/c1ccc(Cl)cc1 [Compound 12e]', 6.66),
  ('Cc1nc(SCC(=O)c2cc3ccccc3o2)sc1C(=O)/C=C/c1ccc(Cl)cc1 [Compound 12b]', 6.71),
  ('Cc1nc(SCC(=O)c2cc3ccccc3oc2=O)sc1C(=O)/C=C/c1ccc(Cl)cc1 [Compound 11b]', 6.74),
  ('Cc1nc(SCC(=O)c2cc3cc(Br)ccc3oc2=O)sc1C(=O)/C=C/c1ccc(Cl)cc1 [Compound 11e]', 6.72);

###

- measurement.target: E. coli DNA gyrase (Escherichia coli, UniProt P0AES6)
- experiment.notes: DNA gyrase supercoiling assay
- Format: biochemical
- condition.context: read-out: RA (residual activity of the enzyme), E. Coli DNA gyrase
Please assign class 0 whenever remaining activity at 1 µM is at or above 60%, and class 1 whenever it is below.

INSERT INTO assay_data (molecule, measurement_target, group) VALUES
  ('COc1ccc(/C=C/C(=O)c2sc(SCC(=O)c3cc4cc(Br)ccc4oc3=O)nc2C)cc1 [Compound 11f]', 'E. coli DNA gyrase (Escherichia coli, UniProt P0AES6)', 'class 0'),
  ('Cc1nc(SCC(=O)c2cc3cc(Br)ccc3o2)sc1C(=O)/C=C/c1ccccc1 [Compound 12d]', 'E. coli DNA gyrase (Escherichia coli, UniProt P0AES6)', 'class 0'),
  ('Cc1nc(SCC(=O)c2cc3ccccc3oc2=O)sc1C(=O)/C=C/c1ccccc1 [Compound 11a]', 'E. coli DNA gyrase (Escherichia coli, UniProt P0AES6)', 'class 0'),
  ('Cc1nc(SCC(=O)c2cc3cc(Br)ccc3oc2=O)sc1C(=O)/C=C/c1ccccc1 [Compound 11d]', 'E. coli DNA gyrase (Escherichia coli, UniProt P0AES6)', 'class 1');

These entries and their values trace back to paper PMC12088962.
